Test system: Mast/stem cell growth factor receptor Kit (Homo sapiens), P10721 [V560G]
Sequence (P10721 whole entry V560G): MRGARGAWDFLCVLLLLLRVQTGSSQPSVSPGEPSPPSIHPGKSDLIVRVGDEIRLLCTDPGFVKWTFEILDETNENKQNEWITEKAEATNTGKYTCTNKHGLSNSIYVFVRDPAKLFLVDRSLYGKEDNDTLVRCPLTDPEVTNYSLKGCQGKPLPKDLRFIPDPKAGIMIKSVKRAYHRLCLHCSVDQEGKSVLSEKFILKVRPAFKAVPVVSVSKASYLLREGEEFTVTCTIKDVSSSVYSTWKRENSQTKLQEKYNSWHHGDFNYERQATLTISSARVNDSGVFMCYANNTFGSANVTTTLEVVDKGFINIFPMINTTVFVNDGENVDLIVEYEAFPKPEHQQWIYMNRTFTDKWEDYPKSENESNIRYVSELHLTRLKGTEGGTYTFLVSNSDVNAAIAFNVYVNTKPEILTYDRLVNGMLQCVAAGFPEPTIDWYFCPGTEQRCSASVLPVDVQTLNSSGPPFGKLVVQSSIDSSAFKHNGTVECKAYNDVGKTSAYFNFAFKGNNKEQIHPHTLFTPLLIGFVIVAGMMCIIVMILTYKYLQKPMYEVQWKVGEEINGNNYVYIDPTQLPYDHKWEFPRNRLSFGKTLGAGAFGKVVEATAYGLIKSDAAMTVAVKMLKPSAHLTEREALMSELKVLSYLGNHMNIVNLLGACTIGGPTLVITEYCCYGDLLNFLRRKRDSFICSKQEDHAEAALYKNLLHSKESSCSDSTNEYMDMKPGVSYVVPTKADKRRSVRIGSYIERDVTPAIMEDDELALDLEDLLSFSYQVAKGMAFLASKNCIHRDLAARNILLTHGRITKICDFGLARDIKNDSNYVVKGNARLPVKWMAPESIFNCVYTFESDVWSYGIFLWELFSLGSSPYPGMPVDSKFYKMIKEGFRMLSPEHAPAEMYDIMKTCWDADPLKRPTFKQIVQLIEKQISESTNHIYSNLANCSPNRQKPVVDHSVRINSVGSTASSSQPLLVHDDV
Condition notes: at 1 µM
We use 3% as the dividing line for inhibition: on or above the line is 1, below is -1.

Check the entry Cc1ccc(NC(=O)CC2CC2)cc1-c1ccc(C(=O)NCC2CC2)cc1 : does inhibition equal or exceed 3%?
-1

Do the same for O=C1Nc2ccc(-c3cccnc3)cc2C1=Cc1cc(Br)c(O)c(Br)c1 please
-1

Also COc1cc(/C=N/Nc2ncnc3c2cnn3C(C)C)ccc1O ?
1

What would you report for COC(=O)c1ccc2c(c1)C(=Cc1cc(Br)c(O)c(Br)c1)C(=O)N2 ?
-1

What do you have for COC(=O)c1cncc(/C=C/c2c(C)cc(O)cc2C)c1 ?
1

Another compound to check: COc1cc2ncnc(Nc3ccc(C)c(O)c3)c2cc1OC
1

* * *

Target: Serine/threonine-protein kinase 26 (Homo sapiens) (UniProt Q9P289);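 further: mean inhibition of MST4 kinase activity, reported from the GSK PKIS inhibitor-set screening panel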
Sequence (Q9P289 2-416 limits assumed): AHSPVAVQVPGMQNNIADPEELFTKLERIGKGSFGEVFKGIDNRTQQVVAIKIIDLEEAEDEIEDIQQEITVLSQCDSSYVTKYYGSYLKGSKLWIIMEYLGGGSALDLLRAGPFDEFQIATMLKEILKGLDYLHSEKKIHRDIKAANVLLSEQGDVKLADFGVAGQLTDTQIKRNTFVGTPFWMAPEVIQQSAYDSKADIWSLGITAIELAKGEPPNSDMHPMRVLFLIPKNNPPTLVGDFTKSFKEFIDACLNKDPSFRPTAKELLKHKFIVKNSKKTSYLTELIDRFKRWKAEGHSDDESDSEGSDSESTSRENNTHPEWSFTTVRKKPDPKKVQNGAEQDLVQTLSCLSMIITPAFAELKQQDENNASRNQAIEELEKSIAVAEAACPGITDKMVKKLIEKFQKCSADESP
Condition notes: at 1 µM
Exercise: state measured inhibition for each of the molecules provided.
The figure you give is taken to be in %; do not add the unit.

Could you share which inhibition value was measured for CCn1c(-c2nonc2N)nc2ccc(F)cc21 ?
3.36

Record: CCS(=O)(=O)c1ccc(OC)c(Nc2ncc(-c3cccc(OC)c3)o2)c1
-4.12

Moving on to COc1cc(/C=N/Nc2ncnc3c2cnn3C(C)C)ccc1O
3.49

// repeat for CCS(=O)(=O)c1ccc(OC)c(Nc2nccc(N(C)c3ccc4c(C)n[nH]c4c3)n2)c1 and report
0.16

How about this molecule: COc1ccc(-c2nn3ncccc3c2-c2ccnc(Nc3cccc(C(F)(F)F)c3)n2)cc1
-0.52

Subsequent entry: N#Cc1c(NC(=O)c2ccccc2F)sc2c1CCCC2
1.28

# repeat for CS(=O)(=O)Nc1cccc(-c2ccc3c(NC(=O)C4CC4)n[nH]c3c2)c1
1.22

Now try Cc1ccc2c(-c3ccnc(Nc4ccc5c(c4)OCCO5)n3)c(-c3ccc(C(F)(F)F)cc3)nn2n1 .
0.53

Field entry: Cc1nc(-c2ccccc2)n2nc(NCCCN3CCOCC3)ncc12
0.4

What would you report for [O-][S+]1CCN(Cc2ccc(-c3ccc4ncnc(Nc5ccc(OCc6ccccc6)c(Cl)c5)c4c3)o2)CC1 ?
1.64

* * *

Target: MAP/microtubule affinity-regulating kinase 3 (Homo sapiens) (UniProt P27448);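 further: mean percent inhibition of MARK3 kinase activity, measured within the GSK PKIS screening panel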
Sequence (P27448 whole entry, looked up): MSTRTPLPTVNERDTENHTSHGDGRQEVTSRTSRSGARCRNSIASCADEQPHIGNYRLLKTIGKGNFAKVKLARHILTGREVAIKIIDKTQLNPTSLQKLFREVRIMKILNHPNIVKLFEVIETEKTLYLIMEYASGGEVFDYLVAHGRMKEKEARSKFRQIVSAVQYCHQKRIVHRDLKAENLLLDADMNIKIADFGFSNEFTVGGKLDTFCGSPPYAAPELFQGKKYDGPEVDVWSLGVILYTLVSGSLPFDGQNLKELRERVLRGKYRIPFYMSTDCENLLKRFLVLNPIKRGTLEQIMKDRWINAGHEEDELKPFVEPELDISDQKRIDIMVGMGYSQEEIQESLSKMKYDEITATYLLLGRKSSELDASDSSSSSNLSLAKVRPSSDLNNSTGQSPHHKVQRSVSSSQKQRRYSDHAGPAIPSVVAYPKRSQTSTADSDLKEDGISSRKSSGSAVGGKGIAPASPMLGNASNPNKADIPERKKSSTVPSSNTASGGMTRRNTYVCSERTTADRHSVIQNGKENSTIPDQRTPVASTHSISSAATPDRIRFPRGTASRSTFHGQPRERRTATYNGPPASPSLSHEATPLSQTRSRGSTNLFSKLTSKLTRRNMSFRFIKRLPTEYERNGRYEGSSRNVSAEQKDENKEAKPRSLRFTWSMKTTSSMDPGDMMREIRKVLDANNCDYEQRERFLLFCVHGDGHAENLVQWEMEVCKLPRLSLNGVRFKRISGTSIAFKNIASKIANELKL
Condition notes: at 0.1 µM
Measured metric: inhibition (%)
Lab book: enter the figure in %, no units written.

Give the measured inhibition of CS(=O)(=O)CCNCc1nc(-c2ccc3ncnc(Nc4ccc(OCc5cccc(C(F)(F)F)c5)cc4)c3c2)cs1 .
0.8

Could you do the same for NS(=O)(=O)c1cccc(-c2cc3ccncc3cc2OCc2ccccc2)c1 , please?
5.98

Next: Nc1nccc(-c2c(-c3ccc(F)cc3)nn3cc(C(F)(F)F)ccc23)n1
-0.09

// next record c1ccc(Nc2ncc(-c3ccccc3)o2)cc1
1.16

Likewise for Cc1ccc(O)cc1Nc1ccnc2ccc(S(C)(=O)=O)cc12 ?
2.7

For CCOc1nccc2c1nc(-c1nonc1N)n2CC then?
1.53

// query: NS(=O)(=O)c1ccc(Nc2cc(-c3cccc(O)c3)n[nH]2)cc1
5.96

Do the same for Nc1nccc(C#Cc2cncnc2Nc2ccc(OCc3cccc(F)c3)c(Cl)c2)n1 please
4.09

// next record O=S(=O)(CCOCc1ccc(-c2ccc3ncnc(Nc4ccc(OCc5cccc(F)c5)c(Cl)c4)c3c2)o1)c1ccccc1
0.76

Also CCS(=O)(=O)c1ccc(OC)c(Nc2ncc(-c3cccc(OC)c3)o2)c1 , if possible.
3.96

Try CN(C)c1cc2c(Nc3ccc4c(cnn4Cc4ccccc4)c3)ncnc2cn1 next.
0.52

How about this compound: Cc1cc(-c2ccccn2)cc(C)c1/C=C/c1cncc(-c2nn[nH]n2)c1
2.15

Check O=C1Nc2ccccc2/C1=C/Nc1ccc2[nH]c(=O)[nH]c2c1 too.
2.47

Another compound to look at: COc1cc(/C=N/Nc2ncnc3c2cnn3C(C)C)ccc1O
0.28

Now try CCS(=O)(=O)c1ccc(OC)c(Nc2nccc(N(C)c3ccc4c(C)n[nH]c4c3)n2)c1 .
3.81

Request: O=C1Nc2ccc(-c3cccnc3)cc2C1=Cc1cc(Br)c(O)c(Br)c1
4.31

Now the same for CN(C)CCCn1c(-c2nonc2N)nc2cnccc21
4.25

Please do the same for CN(C)C(=O)O[C@H]1CN[C@H](C#Cc2cc3ncnc(Nc4ccc(OCc5cccc(F)c5)c(Cl)c4)c3s2)C1 as well.
2.14

CN1CCN(C(=O)c2ccc(NC(=O)Nc3ccc(N(C)c4ccnc(Nc5ccc(CS(C)(=O)=O)cc5)n4)cc3)cc2)CC1 ?
2.96

Let us now turn to O=C(Nc1ccc(Oc2ccc3[nH]c(NC(=O)c4ccco4)nc3c2)cc1)Nc1cc(C(F)(F)F)ccc1F
-0.52

* * *

Consider the following molecules; for each one, report its inhibition.
Target: Ephrin type-A receptor 3 (Homo sapiens);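 further: values are mean inhibition of EPHA3, from the GSK PKIS dataset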
Condition notes: at 0.1 µM
Number in %, nothing else.

Dear colleague, I am looking for the recorded inhibition of the following molecule: COc1cc2ncnc(Nc3ccc(C)c(O)c3)c2cc1OC
6.24

Similarly, O=C1Nc2ccc(-c3cccnc3)cc2C1=Cc1cc(Br)c(O)c(Br)c1 ?
4.82

Continue with COc1cccc(-n2ncc3c(N/N=C/c4ccc(S(C)(=O)=O)cc4)ncnc32)c1
-2.15

Next: Nc1ccc(C#Cc2cncnc2Nc2ccc(OCc3cccc(F)c3)c(Cl)c2)cc1
3.68

Also COc1ccc2ncnc(Nc3ccc(OCc4ccccc4)cc3)c2c1 ?
2.45

* * *

Target: Ribosomal protein S6 kinase beta-1 (Homo sapiens) (UniProt P23443);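 further: values are mean inhibition of p70S6K1, measured as part of the GSK PKIS panel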
Sequence (P23443 whole entry, looked up): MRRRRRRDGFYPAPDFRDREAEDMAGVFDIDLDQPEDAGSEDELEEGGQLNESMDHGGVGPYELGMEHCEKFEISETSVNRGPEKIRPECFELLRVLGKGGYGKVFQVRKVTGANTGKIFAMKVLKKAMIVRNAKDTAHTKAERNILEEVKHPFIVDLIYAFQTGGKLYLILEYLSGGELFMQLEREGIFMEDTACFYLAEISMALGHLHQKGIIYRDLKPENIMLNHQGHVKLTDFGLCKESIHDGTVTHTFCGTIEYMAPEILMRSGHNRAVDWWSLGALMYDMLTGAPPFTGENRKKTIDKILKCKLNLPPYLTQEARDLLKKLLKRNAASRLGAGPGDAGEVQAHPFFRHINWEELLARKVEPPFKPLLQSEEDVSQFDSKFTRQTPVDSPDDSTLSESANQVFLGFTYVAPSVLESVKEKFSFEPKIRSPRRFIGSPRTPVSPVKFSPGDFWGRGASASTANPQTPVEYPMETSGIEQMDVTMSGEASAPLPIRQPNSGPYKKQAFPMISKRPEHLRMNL
Condition notes: at 1 µM
Measured metric: inhibition

Look up inhibition: O=C1Nc2ccccc2/C1=C/Nc1ccc2[nH]c(=O)[nH]c2c1
11.1%

And what about the compound CCS(=O)(=O)c1ccc(OC)c(Nc2nccc(N(C)c3ccc4c(C)n[nH]c4c3)n2)c1 ?
1.3%

Please give the result for NS(=O)(=O)c1cccc(-c2cc3ccncc3cc2OCc2ccccc2)c1 too.
1.18%

Now this one: ON=C1CCc2cc(-c3nc(C4CCNCC4)[nH]c3-c3ccncc3)ccc21
-1.14%

// next record OCc1ccc(-c2nc(-c3ccccn3)c(-c3ccc4c(c3)OCO4)[nH]2)cc1
3.2%

// next record Cc1cc(Cl)cc2c1NC(=O)C2=NNc1ccc(S(N)(=O)=O)cc1
2.34%

Same read-out for COc1cccc(-n2ncc3c(N/N=C/c4ccc(C)cc4)ncnc32)c1 ?
3.95%

One more compound: CCCN1CCCC(c2ccc(Nc3nc(Nc4cc(F)ccc4C(N)=O)c4cc[nH]c4n3)c(OC)c2)C1 (centres undefined)
4.24%

COc1cc2ncnc(Nc3ccc4c(cnn4Cc4ccccc4)c3)c2cc1OC , same question.
1.35%

What would you report for O=C(Nc1ccc(Oc2ccc3[nH]c(NC(=O)c4ccco4)nc3c2)cc1)Nc1cc(C(F)(F)F)ccc1F ?
58.4%

Would you kindly repeat that for Nc1nccc(-c2c(-c3ccc(F)cc3)ncn2CCCN2CCOCC2)n1 ?
1.45%

Please do the same for CN(C)c1cc2c(Nc3ccc4c(cnn4Cc4ccccc4)c3)ncnc2cn1 as well.
3.88%

COc1cc(Nc2nccc(-c3cnn4ncccc34)n2)cc(OC)c1 ?
6.59%

Then N#Cc1c(NC(=O)c2ccccc2F)sc2c1CCCC2 ?
-0.98%

Also, COc1cc2ncn(-c3cc(OCc4ccccc4S(C)(=O)=O)c(C#N)s3)c2cc1OC please.
5.33%

Do the same for CC(C)c1ccc(Nc2nccc(-c3cnn4ncccc34)n2)cc1 please
1.58%

// query: COC(=O)Nc1nc2cc(Oc3ccc(NC(=O)Nc4cccc(Br)c4)cc3)ccc2[nH]1
3.21%

Then what about the compound C[C@@H](Oc1cc(-n2cnc3ccc(OC[C@@H](O)CO)cc32)sc1C(N)=O)c1ccccc1Cl ?
1.5%

Now the same for Cc1nc(-c2ccccc2)n2nc(NCCCN3CCOCC3)ncc12
2.24%

Record: c1ccc(Cc2nc3ccc(Nc4ncnc5ccccc45)cc3[nH]2)cc1
2.79%

Entry COc1ccc2ncnc(Nc3ccc(OCc4ccccc4)cc3)c2c1 please
0.96%

Field entry: C[C@@H](Oc1cc(-n2cnc3ccc(OCC4CCN(C)CC4)cc32)sc1C(N)=O)c1ccccc1C(F)(F)F
5.55%

Try this compound too: CN(C)CCCn1c(-c2nonc2N)nc2cnccc21
13.2%

Can you handle CCS(=O)(=O)c1ccc(OC)c(Nc2ncc(-c3cccc(OC)c3)o2)c1 next?
1.18%

Also check NC(=O)c1sc(-n2cnc3ccccc32)cc1OCc1ccccc1Br
4.06%

Then this compound: Cc1cc(-c2ccccn2)cc(C)c1/C=C/c1cncc(-c2nn[nH]n2)c1
1.44%

Do the same for c1ccc(Nc2ncc(-c3ccccc3)o2)cc1 please
5%

Field entry: NS(=O)(=O)c1cccc(Nc2cc(-c3ccc(F)cc3)n[nH]2)c1
3.12%

Now try COc1cccc(-n2ncc3c(N/N=C/c4ccc(S(C)(=O)=O)cc4)ncnc32)c1 .
5.85%

Here is the next compound: COc1cccc(-n2nc(C)c3c(N/N=C(\C)c4ccncc4)ncnc32)c1
-0.38%

Another compound to check: CC(C)c1ccc2c(c1)NC(=O)/C2=N/Nc1ccc(S(N)(=O)=O)cc1
-1.36%

Next record, please: Oc1cccc(-c2nc(-c3ccccc3)[nH]c2-c2ccncc2)c1
6.44%

Now consider CS(=O)(=O)Nc1cccc(-c2ccc3c(NC(=O)C4CC4)n[nH]c3c2)c1 .
1.9%

Next compound up: COC(=O)c1cncc(/C=C/c2c(C)cc(O)cc2C)c1
1.04%
